# Target or system: Sodium channel protein type 2 subunit alpha (Rattus norvegicus)
# Sequence (P04775 whole entry): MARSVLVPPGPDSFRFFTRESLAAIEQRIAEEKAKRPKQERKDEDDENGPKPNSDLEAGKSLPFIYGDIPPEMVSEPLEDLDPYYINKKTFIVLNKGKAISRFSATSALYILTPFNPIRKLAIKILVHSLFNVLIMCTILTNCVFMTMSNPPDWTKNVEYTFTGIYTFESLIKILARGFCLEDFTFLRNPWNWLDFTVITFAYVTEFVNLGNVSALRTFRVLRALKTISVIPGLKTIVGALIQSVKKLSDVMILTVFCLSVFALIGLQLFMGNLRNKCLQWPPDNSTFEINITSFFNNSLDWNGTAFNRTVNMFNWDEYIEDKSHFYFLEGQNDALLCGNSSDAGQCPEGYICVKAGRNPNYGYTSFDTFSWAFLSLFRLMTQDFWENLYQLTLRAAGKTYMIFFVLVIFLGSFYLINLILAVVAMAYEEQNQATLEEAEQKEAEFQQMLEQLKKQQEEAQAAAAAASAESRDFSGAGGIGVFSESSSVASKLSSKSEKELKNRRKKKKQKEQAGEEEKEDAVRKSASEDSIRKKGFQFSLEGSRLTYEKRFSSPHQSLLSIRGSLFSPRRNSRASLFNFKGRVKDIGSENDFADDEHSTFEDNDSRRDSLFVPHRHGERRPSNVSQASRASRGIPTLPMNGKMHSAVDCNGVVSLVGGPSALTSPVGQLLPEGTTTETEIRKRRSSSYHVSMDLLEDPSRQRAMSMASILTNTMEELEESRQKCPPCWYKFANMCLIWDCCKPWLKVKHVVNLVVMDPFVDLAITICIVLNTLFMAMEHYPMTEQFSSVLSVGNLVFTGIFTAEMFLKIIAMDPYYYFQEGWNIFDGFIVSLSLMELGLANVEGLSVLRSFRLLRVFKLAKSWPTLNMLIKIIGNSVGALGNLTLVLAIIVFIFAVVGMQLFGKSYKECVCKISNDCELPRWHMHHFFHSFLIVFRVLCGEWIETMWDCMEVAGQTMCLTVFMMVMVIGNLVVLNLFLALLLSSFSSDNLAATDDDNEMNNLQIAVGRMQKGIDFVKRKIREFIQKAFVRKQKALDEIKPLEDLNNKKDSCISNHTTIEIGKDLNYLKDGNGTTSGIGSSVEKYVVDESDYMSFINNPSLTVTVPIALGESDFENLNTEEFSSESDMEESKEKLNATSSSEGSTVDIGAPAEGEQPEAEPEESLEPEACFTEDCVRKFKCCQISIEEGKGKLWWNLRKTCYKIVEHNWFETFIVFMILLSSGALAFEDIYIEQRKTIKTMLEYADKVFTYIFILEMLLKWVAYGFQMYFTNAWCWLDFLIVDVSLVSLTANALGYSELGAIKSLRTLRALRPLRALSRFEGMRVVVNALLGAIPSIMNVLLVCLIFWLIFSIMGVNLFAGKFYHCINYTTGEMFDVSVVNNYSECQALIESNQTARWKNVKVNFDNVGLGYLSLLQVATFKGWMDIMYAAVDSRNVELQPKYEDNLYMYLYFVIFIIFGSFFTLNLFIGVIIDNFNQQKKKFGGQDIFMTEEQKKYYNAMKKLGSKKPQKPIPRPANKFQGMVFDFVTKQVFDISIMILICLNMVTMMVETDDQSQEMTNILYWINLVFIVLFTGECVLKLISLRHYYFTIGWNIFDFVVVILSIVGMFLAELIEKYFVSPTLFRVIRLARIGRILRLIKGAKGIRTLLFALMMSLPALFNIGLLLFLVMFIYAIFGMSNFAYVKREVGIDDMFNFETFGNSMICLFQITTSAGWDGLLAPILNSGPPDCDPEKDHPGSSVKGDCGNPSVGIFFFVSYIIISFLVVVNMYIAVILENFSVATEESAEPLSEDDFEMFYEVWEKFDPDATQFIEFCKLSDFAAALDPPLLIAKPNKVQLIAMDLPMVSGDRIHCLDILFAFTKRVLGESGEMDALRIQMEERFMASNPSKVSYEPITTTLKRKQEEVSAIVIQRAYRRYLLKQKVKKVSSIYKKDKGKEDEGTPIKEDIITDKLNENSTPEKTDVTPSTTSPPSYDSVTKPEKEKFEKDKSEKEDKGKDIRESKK
# Experimental protocol: In vitro inhibition of [14C]- guanidinium influx in Chinese hamster ovary (CHO) cells expressing rat brain sodium channel type IIA (CNaIIA-1)
# Type: cell-based
Readout: pIC50
// scale note: pIC50 = -log10(conc_M); give the bare number

Before answering, review these 6 worked examples.
| Molecule | Readout | Endpoint value |
| --- | --- | --- |
| N/C1=N/c2ccc(cc2)OCCCCCOc2ccc(cc2)N1 | pIC50 | 5.54 |
| NC1=Nc2ccccc2CN1c1ccccc1 | pIC50 | 5.00 |
| N=C1N(c2ccccc2)CCN1c1ccccc1 | pIC50 | 4.83 |
| N=C(N)N(Cc1ccccc1)c1ccccc1 | pIC50 | 4.28 |
| CCC(C)c1ccc(N(Cc2ccc(C(C)(C)C)cc2)C(=N)N)cc1 (stereo not drawn) | pIC50 | 6.21 |
| N=C(N)N1Cc2ccccc2CCc2ccccc21 | pIC50 | 4.42 |

Recorded pIC50 of CCOc1ccc(NC(=N)Nc2ccc(OCC)cc2)cc1 , please. 5.48

Entry N=C(N)N1c2ccccc2CCC1c1ccccc1 (stereo not drawn) please 4.76

And the next one, CN(c1nc2ccccc2s1)C1CCN(C[C@H](O)COc2ccc(F)c(F)c2)CC1 ? 6.59

Entry CCC(C)c1ccc(N2C(N)=NCC2c2ccc(C(C)C)cc2)cc1 (stereo not drawn) please 5.74
